Molecular target: Mitogen-activated protein kinase 14 (Homo sapiens, UniProt Q16539)
Sequence (Q16539 whole entry): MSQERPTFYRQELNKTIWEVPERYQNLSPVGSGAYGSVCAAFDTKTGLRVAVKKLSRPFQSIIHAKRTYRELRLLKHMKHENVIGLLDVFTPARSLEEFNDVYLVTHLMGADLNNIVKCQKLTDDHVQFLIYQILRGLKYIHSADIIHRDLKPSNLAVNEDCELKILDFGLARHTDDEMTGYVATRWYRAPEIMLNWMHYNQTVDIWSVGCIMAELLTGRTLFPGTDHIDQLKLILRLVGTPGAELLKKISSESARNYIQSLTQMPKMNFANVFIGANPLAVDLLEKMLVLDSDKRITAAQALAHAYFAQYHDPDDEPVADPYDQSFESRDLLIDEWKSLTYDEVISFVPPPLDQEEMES
Experiment: Inhibition of p38alpha
observedProperty: pIC50
Please treat pIC50 as minus the base-10 logarithm of the molar concentration.

Recorded results for 5 molecules are shown here.
INSERT INTO measurements (structuresmilesstring, experimentaltarget, measuredresult) VALUES
  ('CC(C)c1nnc2ccc(-c3ocnc3-c3cc(F)c(Cl)cc3F)cn12', 'Mitogen-activated protein kinase 14 (Homo sapiens, UniProt Q16539)', 7.61),
  ('CC(C)c1nnc2ccc(-c3c[nH]nc3-c3cc(F)ccc3F)cn12', 'Mitogen-activated protein kinase 14 (Homo sapiens, UniProt Q16539)', 8.55),
  ('CC(C)c1nnc2ccc(-c3ocnc3-c3cc(F)cc(F)c3F)cn12', 'Mitogen-activated protein kinase 14 (Homo sapiens, UniProt Q16539)', 7.08),
  ('Fc1ccc(F)c(-c2ncoc2-c2ccc3nnc(C4CC4)n3c2)c1', 'Mitogen-activated protein kinase 14 (Homo sapiens, UniProt Q16539)', 7.62),
  ('CC(C)c1nnc2ccc(-c3ocnc3-c3c(F)cc(F)cc3F)cn12', 'Mitogen-activated protein kinase 14 (Homo sapiens, UniProt Q16539)', 8.14);

Give a short answer stating reported pIC50 for CC(C)c1nnc2ccc(-c3ocnc3-c3ccc(Cl)cc3F)cn12 .
8.66

Respond only with pIC50 recorded for CC1(c2nnc3ccc(-c4ocnc4-c4cc(F)ccc4F)cn23)CCC1
8.82

Let me know recorded pIC50 for CC(C)(C)c1nnc2ccc(-c3ocnc3-c3ccc(F)cc3)cn12 , thanks.
8.46

Could you please provide reported pIC50 for CC(C)c1nnc2ccc(-c3cnoc3-c3cc(F)ccc3F)cn12 ? Thanks!
7.48

Consider the molecule CC1(c2nnc3ccc(-c4ocnc4-c4ccc(F)cc4F)cn23)CCC1 . State its measured pIC50.
8.96
